Assay: clinical
Assay type: in vivo, human
Details: human, in vivo, 2 mg, CLr, Mean

>  <Compound>
O=C(O)c1nc2ccccc2n([C@H]2C[C@H]3CCC[C@@H](C2)N3C2CC3CCCC(C3)C2)c1=O (stereo partly shown)

>  <CL renal (mL/min)>
210

$$$$

* * *

Test: clinical
Assay type: in vivo, human
Details: human, in vivo, 2 mg, AUC, Mean (CV %)

>  <Compound>
O=C(O)c1nc2ccccc2n([C@H]2C[C@H]3CCC[C@@H](C2)N3C2CC3CCCC(C3)C2)c1=O (stereo partly shown) [Compound (1C)]

>  <Unit of measurement>
ng·h/mL

>  <AUC>
130

$$$$

* * *

Experiment: clinical
Format: in vivo, human
Details: human, in vivo, 2 mg, Cmax, Mean (CV %)
Measured parameter: Cmax

>  <Molecule>
O=C(O)c1nc2ccccc2n([C@H]2C[C@H]3CCC[C@@H](C2)N3C2CC3CCCC(C3)C2)c1=O (stereo partly shown) [Compound (1C)]

>  <Result>
28.2 ng/mL

$$$$

* * *

Experiment: clinical
Format: in vivo, human
Details: human, in vivo, 2 mg, 2 mg alone; read-out: T1/2, Mean (CV %) (converted)

>  <Compound>
O=C(O)c1nc2ccccc2n([C@H]2C[C@H]3CCC[C@@H](C2)N3C2CC3CCCC(C3)C2)c1=O (stereo partly shown)

>  <Unit of measurement>
h

>  <half-life>
4

$$$$

* * *

Test: clinical
Assay type: in vivo, human
Details: human, in vivo, 6 mg + EtOH (0.7 g/kg); read-out: T1/2, Mean (CV %) (converted)

>  <Molecule>
O=C(O)c1nc2ccccc2n([C@H]2C[C@H]3CCC[C@@H](C2)N3C2CC3CCCC(C3)C2)c1=O (stereo partly shown) [Compound (1C)]

>  <half-life (h)>
4.5

$$$$

* * *

Assay: clinical
Format: in vivo, human
Details: human, in vivo, po
Procedure: The highest doses tested in healthy subjects were for a 30-mg single dose and a 10-mg multiple dose (once daily nighttime dose for 14 days). The highest dose tested in subjects with insomnia was 10 mg.

>  <Compound>
O=C(O)c1nc2ccccc2n([C@H]2C[C@H]3CCC[C@@H](C2)N3C2CC3CCCC(C3)C2)c1=O (stereo partly shown) [Compound (1C)]

>  <Tmax>
~1.5 h

$$$$

# credit: patent US11576913B2
